Each recorded value in this set is attributed to PubChem BioAssay AID1159580.

# ASSAY_NOTES: chemical genetic growth profiling, strain panel (AID 1159580);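 also: tested at 20 µM; growth read once vehicle control cultures reached saturation at 30 °C; 1 = growth at the plate median or of vehicle wells; lower values mean less growth of the strain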
# ASSAY_CONTEXT: S. cerevisiae deletion strains, growth OD, locus YOR061W, strain CKA2, active compounds read low
Hit rate of the full screen: of about 5,500 compounds, about 2,000 (36%) were called active. Inconclusive results (about 18%) are left out. Some of the results follow.
// assign condition met if normalized growth falls strictly below 0.9, else condition not met (ties count as condition not met)

O=C(O)CCC(=O)c1ccc(-c2ccccc2)cc1 = condition not met
CC(C)(O)C#Cc1ccc(/C=N\Nc2ccccc2)cc1 = condition met
CCOP(=S)(OCC)Oc1ccc2c(C)c(Cl)c(=O)oc2c1 = condition not met
O=C(NCc1ccco1)c1csc(C2COc3ccccc3O2)n1 (configuration not stated) = condition met

Kindly review the next compound as well.
State whether 0.9 exceeds normalized growth recorded for `CC(C)(O)C#Cc1ccc(/C=N\Nc2c(Cl)cc(Cl)cc2Cl)cc1` .
condition met

###

# ASSAY_NOTES: chemical genetic growth profiling, strain panel (AID 1159580);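 also: tested at 20 µM; growth read once vehicle control cultures reached saturation at 30 °C; 1 = growth at the plate median or of vehicle wells; lower values mean less growth of the strain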
# ASSAY_CONTEXT: S. cerevisiae deletion strains, growth OD, locus YNL271C, strain bni1, active compounds read low
Among all 5,500 compounds or so, about 2,000 (36%) were called active. Another 18% or so got no clear call; they are omitted. This is one part of the list.
METRIC_NAME: normalized growth
Provide a numeric answer; units are not to be included.

Examples with their reported normalized growth follow.
O=c1ccn([C@@H]2O[C@H](COP(=O)(O)OP(=O)(O)OP(=O)(O)O)[C@@H](O)[C@H]2O)c(=O)[nH]1 = 0.998
C=CCN1CC[C@]23c4c5ccc(O)c4OC2C(=O)CC[C@@]3(O)[C@H]1C5 (stereo not given in full) = 0.998
CCCNC(C)C(=O)Nc1ccccc1C (stereo not given) = 0.996
CCn1cc(C(=O)O)c(=O)c2ccc(C)nc21 = 0.864
CC(C)C1=CC2=CCC3[C@](C)(CCC[C@]3(C)C(=O)O)C2CC1 (stereo not given in full) = 0.963
CCn1cc(C(=O)O)c(=O)c2cc3c(cc21)OCO3 = 0.993
NC(=O)c1cc[n+](CC2=C(C(=O)O)N3C(=O)C(NC(=O)C(c4ccccc4)S(=O)(=O)[O-])C3SC2)cc1 (stereo not given) = 0.985
CC1CC2C(C(O)CC3(C)C2CCC3(O)C(=O)COC(=O)CCC(=O)O)C2(C)C=CC(=O)C=C12 (stereo not given) = 0.999

So what does the record say about normalized growth for CC(COc1ccccc1)N(CCCl)Cc1ccccc1 (stereo not given) ?
1.01

So what does the record say about normalized growth for `OC/C=C/c1ccc(O)c(O)c1` ?
0.963

So what does the record say about normalized growth for `COc1ccccc1N1CCNCC1` ?
1.04

So what does the record say about normalized growth for O=C(O)CCCCC1SCC2NC(=O)NC21 (stereo not given) ?
0.996

So what does the record say about normalized growth for `C[C@H](COc1ccccc1)N[C@H](C)[C@H](O)c1ccc(O)cc1` ?
0.993

So what does the record say about normalized growth for CC(=O)Oc1cc(C)c2c(c1C(OC(C)=O)OC(C)=O)Oc1c(c(C)c(OC(C)=O)c3c1C(OC(C)=O)OC3=O)OC2=O (stereo not given) ?
0.968

So what does the record say about normalized growth for Nc1nc(N)c2nc(CNc3ccc(C(=O)NC(CCC(=O)O)C(=O)O)cc3)cnc2n1 (stereo not given) ?
0.984
